assay: soluble fraction after stress (log2 fold change); higher = more stays soluble; pooled small domains, quantitative proteomics; conditions: stress: 50 degC
Outcome: yes for soluble fraction (log2) of at least -0.3; no for anything lower.

# input Given HMSVDEVEALYLKIAEDRLEGKLPDKVSESDLMRRYGLTKAQLGAILQRIVHEGWIERTPGHGWRFLPIL , state whether its soluble fraction (log2) is at least -0.3.
# output yes

# input Given HMVDIIMDLLEAVAQARPADAFIKSLHIQYQERGGLSKKQLQGLYGKAAKTAGIPPGKLATLEAIILKRP , state whether its soluble fraction (log2) is at least -0.3.
# output no

# input Given HMSVYIGVDQAKSIAAEHAGLSNSAVTFSKAKLENDDGMTVYEVEFFYQGTEYDYKIDASTGSILEYDLDR , state whether its soluble fraction (log2) is at least -0.3.
# output no

# input Given HMENNIRLSVPDTESGQRIDSYLAEQIPGLTRSAVQNLLAEQAVTIAGKAVKKNYKLLGGEDILVQLPEVR , state whether its soluble fraction (log2) is at least -0.3.
# output yes

# input Given HMKITADQEIETAINYFKKSIAEKGWKGVNPDEFKQMNDYLSETFGYSATIKFQKALDEQGLMVDE , state whether its soluble fraction (log2) is at least -0.3.
# output yes

# input Given HMGTKRWELPRRVQQMATQHGKSISTAAAEELVSRSGENTRMLDNDLVKLAQMVEAPQIELADVERWIVR , state whether its soluble fraction (log2) is at least -0.3.
# output yes

# input Given HMARHIHFEVHVQQAGRWSIHAQFGAGQREKAIEEAKKIEKTPGFDSVKVVKETYDSDLGNHQDTTIYRGP , state whether its soluble fraction (log2) is at least -0.3.
# output no

# input Given HMNEDDQLLKVLLAEPLRLEELYNLDLKPQGPYNLQTWIMVHLTELERDGLIARFPDGRYGPAR , state whether its soluble fraction (log2) is at least -0.3.
# output no

# input Given HMADGTSIYAEREVLYVTSPTANTAKVYNVSGALVRTMTLSAGQTVRTALPAGFYVVALGNGNTHKVIV , state whether its soluble fraction (log2) is at least -0.3.
# output no

# input Given HMNEMSDTITRLLDAAETGIRLRGYHAVSFRDLAEELGIKSSSVHYYFRQKEDLGLAVVERY , state whether its soluble fraction (log2) is at least -0.3.
# output yes

# input Given HMAAVEDLPVKSVNGKKYHYYTVQPKESLYSLSHKLGISRQEIIKYNPGVEDGLKAYEDLLFPYTPK , state whether its soluble fraction (log2) is at least -0.3.
# output yes

# input Given HMTPATVVIPKVAGQTVAEAKETLKNANFEIGEEKDESSDTVEEGRVIRTDPESGTNRKEGTKINLIVSS , state whether its soluble fraction (log2) is at least -0.3.
# output yes

# input Given HMSSWMTKDGKIKPISKWAGVPMTSQQQADYAAGKVVELTNIPDKQGQLNTVYLKFNPEKQRPTTSLNDPR , state whether its soluble fraction (log2) is at least -0.3.
# output yes

# input Given HMPDVAIMNVSVEPEKKVVRLQVKAISLEALLDFSTRLEAIPARVELQNHTPSKELSQKWAVNATLIVIY , state whether its soluble fraction (log2) is at least -0.3.
# output yes

# input Given HMGESVQVPSYVGMGFREAARKARARDFGVAVSDSIYVPGKPPGEIIAQDPKAESRVKEGRTIYFTVAK , state whether its soluble fraction (log2) is at least -0.3.
# output yes

# input Given HMTPVFGEEETVLQAAVRGIISDTDQWTMEAEAKSMLNQLGFSDYEEKMAHMSGGQKKRVALVNALLTP , state whether its soluble fraction (log2) is at least -0.3.
# output yes

Measured values drawn from the domain aggregation screens of Martell et al. (2025) for this set.
